# SYSTEM NAME: human TLR7 (Homo sapiens, UniProt Q9NYK1)
# Construct: host or cells: HEK293 (HEK-Blue hTLR7)
# Sequence (Q9NYK1 27-1049): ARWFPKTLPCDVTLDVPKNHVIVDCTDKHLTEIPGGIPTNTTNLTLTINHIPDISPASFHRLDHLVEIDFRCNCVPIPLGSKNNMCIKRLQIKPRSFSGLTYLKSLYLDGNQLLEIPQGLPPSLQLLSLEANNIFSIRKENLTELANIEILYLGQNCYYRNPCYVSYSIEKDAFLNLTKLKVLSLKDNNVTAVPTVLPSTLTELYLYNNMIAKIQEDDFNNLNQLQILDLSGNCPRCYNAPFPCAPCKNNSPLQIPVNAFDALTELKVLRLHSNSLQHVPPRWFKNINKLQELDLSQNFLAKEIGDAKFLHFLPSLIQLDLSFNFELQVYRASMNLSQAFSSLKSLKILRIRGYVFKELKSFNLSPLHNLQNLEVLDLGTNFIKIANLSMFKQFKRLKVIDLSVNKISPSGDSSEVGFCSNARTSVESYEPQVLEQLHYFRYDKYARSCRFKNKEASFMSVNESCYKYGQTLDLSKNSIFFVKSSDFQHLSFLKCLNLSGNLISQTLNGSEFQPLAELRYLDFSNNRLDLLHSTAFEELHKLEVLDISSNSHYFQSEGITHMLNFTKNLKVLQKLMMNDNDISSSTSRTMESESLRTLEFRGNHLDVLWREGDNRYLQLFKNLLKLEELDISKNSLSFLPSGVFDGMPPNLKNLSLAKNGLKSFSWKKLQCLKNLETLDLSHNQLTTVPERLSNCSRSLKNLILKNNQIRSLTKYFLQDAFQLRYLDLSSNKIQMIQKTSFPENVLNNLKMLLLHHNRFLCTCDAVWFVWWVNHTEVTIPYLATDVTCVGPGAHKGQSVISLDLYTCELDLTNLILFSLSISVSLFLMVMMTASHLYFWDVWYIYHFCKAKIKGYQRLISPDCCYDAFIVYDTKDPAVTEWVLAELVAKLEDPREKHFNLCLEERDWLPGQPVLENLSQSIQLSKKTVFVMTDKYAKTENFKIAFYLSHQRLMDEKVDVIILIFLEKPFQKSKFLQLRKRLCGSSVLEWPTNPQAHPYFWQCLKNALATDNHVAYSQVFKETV
# TEST DETAILS: HEK293-Blue-hTLR-7 cells assay
# Type: cell-based
# CONDITION SET: HEK293-Blue-hTLR7 cells, R848 stimulation, 20 hrs, SEAP reporter; read-out: HEK/hTLR7 IC50
OBSERVED PROPERTY: IC50 (nM)
Please give a number only; it is taken to be in nM.

I am curious: what IC50 value has been reported for C[C@@H]1CN(c2ccc(C#N)c3ncccc23)C[C@@H]2CN(c3ccnc(N4CCOC[C@@H](N)C4)c3)CCN21 ?
13

I am curious: what IC50 value has been reported for [2H]c1ccc2c(N3C[C@@H]4CN(c5ccc(CCN6C[C@H](OC)[C@@H](N)C6)cn5)CCN4[C@H](C)C3)ccc(C#N)c2n1 ?
5

I am curious: what IC50 value has been reported for [2H]c1ccc2c(N3C[C@@H]4CN(c5ncc(C(=O)N6CC7(CN(C)C7)C6)cc5C)CCN4[C@@H](C)C3)ccc(C#N)c2n1 ?
6

I am curious: what IC50 value has been reported for C[C@@H]1CN(c2ccc(C#N)n3ncc(F)c23)C[C@@H]2CN(Cc3ccc4c(c3)CNCC4)CCN21 ?
66

I am curious: what IC50 value has been reported for [2H]c1ccc2c(N3C[C@@H]4CN(c5ncc(N6C[C@H]7NCCO[C@@H]7C6)cc5C)CCN4[C@H](C)C3)ccc(C#N)c2n1 ?
1

I am curious: what IC50 value has been reported for [2H]c1ccc2c(N3C[C@@H]4CN(CCc5ccc(N6C[C@H]7NCCO[C@@H]7C6)nc5)CCN4[C@H](C)C3)ccc(C#N)c2n1 ?
21
